Each entry below carries its recorded fold change of Putrescine concentration.
Test system: Escherichia coli IAI1
Assay: fold change of Putrescine concentration vs plate DMSO controls (fold change (ratio)); higher = more amine produced, active = hit call of the paper (significant change in both replicates, either direction)
Settings: incubation time: 27 h, anaerobic, 37 °C
Structures can show the parent of a compound that is named as a salt.

molecule	fold change of Putrescine concentration
COc1cccc(N(C)C(=S)Oc2ccc3c(c2)CCCC3)n1 [Liranaftate] (20 µM)	0.998
CN1CCC(OC(c2ccccc2)c2ccccc2)CC1 [Diphenylpyraline hydrochloride] (20 µM)	1.01
COC(=O)C1=C(C)NC(C)=C(C(=O)OC(C)C)C1c1cccc2nonc12 (centres undefined) [Isradipine] (20 µM)	1.04
CC1(C)S[C@@H]2[C@H](NC(=O)C(c3ccccc3)S(=O)(=O)O)C(=O)N2[C@H]1C(=O)O (some centres undefined) [Sulbenicillin sodium salt] (20 µM)	1.84
CN(C(=O)CN(CCO)CC(=O)N(C)C(C)(C)Cc1ccccc1)C(C)(C)Cc1ccccc1 [Oxethazaine] (20 µM)	1.1
CCC(=O)OCC(=O)[C@@]1(OC(=O)CC)[C@H](C)C[C@H]2[C@H]3[C@H]([C@@H](O)C[C@@]21C)[C@@]1(C)C=CC(=O)C=C1C[C@H]3Cl [Alclometasone dipropionate] (20 µM)	1.03
CO[C@H]1C[C@H](O[C@H]2[C@H](C)[C@@H](O[C@@H]3O[C@H](C)C[C@H](N(C)C)[C@H]3OC(C)=O)[C@@H](C)C[C@@]3(CO3)C(=O)[C@H](C)[C@@H](OC(C)=O)[C@@H](C)[C@@H](C)OC(=O)[C@@H]2C)O[C@@H](C)[C@@H]1OC(C)=O [Troleandomycin] (20 µM)	1.01
CC(C)Oc1ccc2c(=O)c(-c3ccccc3)coc2c1 [Ipriflavone] (20 µM)	0.98
C[C@]12CCC3=C4CCC(=O)C=C4CC[C@H]3[C@@H]1CC[C@@]2(O)CC#N [Dienogest] (20 µM)	0.979
Cc1cccc(N(C)C(=S)Oc2ccc3ccccc3c2)c1 [Tolnaftate] (20 µM)	1.04
Nc1nc(N)c2nc(-c3ccccc3)c(N)nc2n1 [Triamterene] (20 µM)	0.8
OC(CCN1CCCCC1)(c1ccccc1)C1CCCCC1 (centres undefined) [Trihexyphenidyl-D,L hydrochloride] (20 µM)	1.17
Cc1cc(NS(=O)(=O)c2ccc(N)cc2)nc(C)n1 [Sulfisomidine] (20 µM)	0.985
Nc1ccn([C@@H]2O[C@H](CO)[C@@H](O)C2(F)F)c(=O)n1 [Gemcitabine] (20 µM)	0.969

* * *

Each entry below carries its recorded fold change of Histamine concentration.
Test system: Klebsiella aerogenes DSM 30053
Assay: fold change of Histamine concentration vs plate DMSO controls (fold change (ratio)); higher = more amine produced, active = hit call of the paper (significant change in both replicates, either direction)
Conditions: incubation time: 27 h, anaerobic, 37 °C
Where a name gives a salt, the structure may show the parent alone.
measurement-name: fold change of Histamine concentration

> print(dat)
                                    molecule    val
 1  CCOc1ccc(NC(C)=O)cc1 [Phenacetin] (20 µM)   1.03
 2  C[C@@H]1CCC[C@H](C)N1NC(=O)c1ccc(Cl)c(S(N)(=O)=O)c1 [Clopamide] (20 µM)   1.07
 3  Cc1cc(C#N)cc(C)c1Oc1nc(Nc2ccc(C#N)cc2)nc(N)c1Br [Etravirine] (20 µM)   1.01
 4  CCCCOc1ccc(OCCCN2CCOCC2)cc1 [Pramoxine hydrochloride] (20 µM)  0.904
 5  C[C@@H](NCCCc1cccc(C(F)(F)F)c1)c1cccc2ccccc12 [Cinacalcet hydrochloride] (20 µM)  0.977
 6  C[C@]12C[C@H](O)[C@H]3[C@@H](CCC4=CC(=O)CC[C@@]43C)[C@@H]1CC[C@@H]2C(=O)CO [Corticosterone] (20 µM)  0.992
 7  COc1ccc(CCN(C)CCCC(C#N)(c2ccc(OC)c(OC)c2)C(C)C)cc1OC (stereo unspecified) [Verapamil hydrochloride] (20 µM)  0.942
 8  OC[C@@H](O)[C@@H](O[C@H]1O[C@H](CO)[C@@H](O)[C@H](O)[C@H]1O)[C@H](O)[C@@H](O)CO [Maltitol] (50 µM)      1
 9  CN/C(=N\CCSCc1nc[nH]c1C)NC#N [Cimetidine] (20 µM)  0.893
10  CC(C)(C)C(=O)OCOC(=O)[C@@H]1N2C(=O)[C@@H](NC(=O)[C@H](N)c3ccccc3)[C@H]2SC1(C)C [Pivampicillin] (20 µM)   1.04
11  O=C1CN2Cc3c(ccc(Cl)c3Cl)N=C2N1 [Anagrelide] (20 µM)  0.845
12  COc1ccc(C2CNC(=O)C2)cc1OC1CCCC1 (stereo unspecified) [Rolipram] (20 µM)  0.951
13  Nc1nc(/C(=C/CC(=O)O)C(=O)N[C@@H]2C(=O)N3C(C(=O)O)=CCS[C@H]23)cs1 [Ceftibuten] (20 µM)  0.885
14  CC(C)[C@H](N)C(=O)OCCOCn1cnc2c(=O)nc(N)[nH]c21 [Valacyclovir hydrochloride] (20 µM)   1.09
15  CN[C@@H]1CCc2[nH]c3ccc(C(N)=O)cc3c2C1 [Frovatriptan succinate] (20 µM)   1.05
16  NC(N)=Nc1nc(CSCC/C(N)=N/S(N)(=O)=O)cs1 [Famotidine] (20 µM)   1.04
